Target: human RGS14 RGS-box (wild-type) (Homo sapiens, UniProt O43566)
Construct: human RGS14 RGS-box (aa 46–195 of UniProt O43566); host or cells: E. coli
Sequence (O43566 46-195): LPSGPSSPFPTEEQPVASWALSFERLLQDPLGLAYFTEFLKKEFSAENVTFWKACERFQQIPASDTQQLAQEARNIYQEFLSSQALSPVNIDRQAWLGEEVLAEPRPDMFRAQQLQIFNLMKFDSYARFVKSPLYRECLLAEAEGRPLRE
Assay: Transcreener GDP RGScreen fluorescence polarization assay of RGS14 RGS-box GAP activity on Gαi1(DM)
Assay type: biochemical
Details: wild-type RGS14 RGS-box GAP activity, Gαi1(DM), Transcreener GDP RGScreen; read-out: RGS14 pIC50 (converted)
MEASURED QUANTITY: IC50 (µM)
Write the number in µM without appending the unit.

Qu. Which IC50 is listed for COC(=O)C1Sc2nnc(COc3ccc(OC)cc3)n2N=C1c1cccc(N2CCCC2=O)c1 (stereo not shown) ?
Ans. 27.5

Qu. Which IC50 is listed for COc1ccc(Cc2nnc3n2N=C(c2ccc(C)c(C)c2)[C@@H](C)S3)cc1OC ?
Ans. 75.9

Qu. Which IC50 is listed for Fc1ccccc1OCc1nnc2n1N=C(c1ccc(Cl)cc1)CS2 ?
Ans. 234

Value source: paper PMC12495443
